Value source: paper PMC6283615

- System: NIH/3T3 cells
- test details: Drug toxicity to 3T3 cells (Alamar Blue, 96 h)
- Format: cell-based
recorded endpoint: 3T3 TC50

Sample records with 3T3 TC50:
sample smiles	recorded endpoint	result
CN1CCN(c2ncc(-c3ccc4c(Nc5cnccn5)ccnc4c3)cn2)CC1	3T3 TC50	34 µM
Cc1nn(C)c(C)c1Nc1ccc2c(Nc3cnccn3)ccnc2c1	3T3 TC50	> 100 µM
Cc1cnc(Nc2ccc3c(Nc4cnccn4)ccnc3c2)s1	3T3 TC50	> 50 µM
Cn1nccc1Nc1ccc2c(Nc3cnccn3)ccnc2c1	3T3 TC50	> 50 µM
c1coc(-c2ccc3c(Nc4cnccn4)ccnc3c2)c1	3T3 TC50	> 100 µM
Cc1nnc(Nc2ccnc3cc(-c4ccc(S(=O)(=O)N5CCN(C)CC5)cc4)ccc23)nc1C	3T3 TC50	> 100 µM
CN1CCN(S(=O)(=O)c2ccc(-c3ccc4c(Nc5ncc(Cl)cn5)ccnc4c3)cc2)CC1	3T3 TC50	11 µM
COc1ccc(Nc2ccnc3cc(-c4cnn(C)c4)ccc23)cc1Cl	3T3 TC50	> 100 µM
Cc1ccc(-c2ccc3c(Nc4cnccn4)ccnc3c2)o1	3T3 TC50	> 50 µM
COc1ccc(Nc2ccnc3cc(-c4cnc(N5CCN(C)CC5)nc4)ccc23)cc1Cl	3T3 TC50	4.9 µM

Field: next compound
Retrieve 3T3 TC50 measured for `CN1CCN(S(=O)(=O)c2ccc(-c3ccc4c(Nc5cccnc5)ccnc4c3)cc2)CC1` and print it.
> 100 µM
